assay_info: The drug is tested on the gut metagenome community of T-02 with ENA study accession number: PRJEB31790 for biotransformation under anaerobic condition. The drug concentrations were measured over 7 timepoints collected between 0 and 12 hours of incubation by liquid-chromatography-coupled mass spectrometry (LC–MS)
Assay type: ADME
Parameters: dose 5 uM, timepoint 0, 0.75, 1.5, 3, 6, 9, 12 hours
assay_context: 5 µM
measure: Bacterial Biotransformation

INSERT INTO measurements (molecule, measured) VALUES
  ('C[C@]12CCC(=O)C=C1CC[C@@H]1[C@@H]2[C@@H](O)C[C@@]2(C)[C@H]1CC[C@]2(O)C(=O)CO [HYDROCORTISONE]', 'Compound metabolized'),
  ('CCOC(=O)[C@H](CCc1ccccc1)N[C@@H](C)C(=O)N1[C@H](C(=O)O)C[C@@H]2CCC[C@@H]21', 'Compound NOT metabolized'),
  ('C=CC[C@@H]1/C=C(\C)C[C@H](C)C[C@H](OC)[C@H]2O[C@@](O)(C(=O)C(=O)N3CCCC[C@H]3C(=O)O[C@H](/C(C)=C/[C@@H]3CC[C@@H](O)[C@H](OC)C3)[C@H](C)[C@@H](O)CC1=O)[C@H](C)C[C@@H]2OC.O', 'Compound metabolized'),
  ('C[C@@H]1C[C@H]2[C@@H]3CCC4=CC(=O)C=C[C@]4(C)[C@@]3(F)[C@@H](O)C[C@]2(C)[C@@]1(O)C(=O)CO', 'Compound metabolized'),
  ('CCOC(=O)C1=C(COCCN)NC(C)=C(C(=O)OC)C1c1ccccc1Cl (stereo unspecified)', 'Compound NOT metabolized'),
  ('C[C@H]1C[C@@H]2[C@H]([C@@H](O)C[C@@]3(C)[C@H]2CC[C@]3(O)C(=O)CO)[C@@]2(C)C=CC(=O)C=C12', 'Compound metabolized');
